# Experiment description: APR_HepG2_MitoMembPot_24hr: Apredica 24-hour HepG2 Assay for Mitochondrial Membrane Potential (AID 2282911)
# Run conditions: imaging, actives raise or lower the signal
Activity calls are given as the source filed them. How the source made its calls: active means hit-call score of the fitted dose curve at least 0.9, where 1 is the maximum; inactive means score below 0.9.
Form entry, call: pick from yes = active, no = inactive

Assay outcome for "Nc1ccn([C@@H]2O[C@H](CO)[C@@H](O)[C@@H]2O)c(=O)n1" : what was it? no

Can you look up the reported call for "OCC(CO)(CO)CO" for me? no

Each compound tested received a call. Report the one for "CCOC(N)=O" . no

Name the outcome recorded for "O=C(O)c1cccc(C(=O)O)c1" in the assay. no

Any idea what this test logged for "CCCCCCOC(=O)CC(CC(=O)OCCCCCC)(OC(=O)CCC)C(=O)OCCCCCC" ? no

Hello, I am checking results. What call was entered for "CCCCOC(=O)c1ccccc1" ? no

Give the logged outcome of this assay for the following compound: "C=CN1CCCC1=O" no

Recorded call for "CCCC(CCC)C(=O)O" ? no

Hi, sorry to bother you, what did the test record for "NNC(=O)c1ccncc1" ? no

Recorded test outcome, item "CC[C@H](C)C(=O)O[C@H]1C[C@H](O)C=C2C=C[C@H](C)[C@H](CC[C@@H](O)C[C@@H](O)CC(=O)O)[C@H]21" no

For "CCCCCCCCCCCCCCCCOS(=O)(=O)O" , which call appears in the assay record? no

Recorded test outcome, item "NC(=O)N(O)[C@@H]1COc2cc(OCc3ccccc3)ccc21" yes

Per the assay record, what outcome was assigned to "CNC(C)=O" ? no

Could you please tell me the result logged for "OC[C@H]1O[C@@](CO)(O[C@H]2O[C@H](CO)[C@@H](O)[C@H](O)[C@H]2O)[C@@H](O)[C@@H]1O" in this assay? no

Could you kindly confirm the outcome this assay logged for "Cn1cc[nH]c1=S" ? no

Which outcome was entered for the compound "CCCc1ccccc1" in this test? yes

Please share the test call associated with "CCc1ccc(O)c(C(C)(C)C)c1" . yes

What did this assay record as the result for "c1ccc2c(c1)-c1cccc3c1c-2cc1ccccc13" ? yes

// param item: "CCCCCCCCCCCCCCO" ; yields the recorded call no

What did the test return for "O=C(O)c1ccc2c(c1)nc(C(=O)NC1CCN(C3CC3)CC1)n2Cc1cc(-c2ccc(Cl)s2)on1" ? no

In this assay, the call recorded for "NC(=O)NN=Cc1ccc([N+](=O)[O-])o1" was what? no

Recorded test call requested for "OC[C@H]1O[C@@H]2O[C@H]3[C@H](O)[C@@H](O)[C@@H](O[C@H]4[C@H](O)[C@@H](O)[C@@H](O[C@H]5[C@H](O)[C@@H](O)[C@@H](O[C@H]6[C@H](O)[C@@H](O)[C@@H](O[C@H]7[C@H](O)[C@@H](O)[C@@H](O[C@H]1[C@H](O)[C@H]2O)O[C@@H]7CO)O[C@@H]6CO)O[C@@H]5CO)O[C@@H]4CO)O[C@@H]3CO" no

# fetch the recorded call for "NC(N)=O" here no

* * *

# Read-out: Human Leukocyte Antigen - DR isotype (HLADR), HLA-DRA (gene 3122)
# Experiment description: BSK_3C_HLADR: BioMAP Diversity Plus: 3C Assay for Human Leukocyte Antigen - DR isotype (HLADR) Biomarker Activity (AID 2283019);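 on Outcome: ELISA of cell-surface HLA-DR on HUVEC 24 h after dosing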
# Run conditions: primary human endothelial cells (HUVEC); actives raise or lower the signal
Active and inactive are the calls of the source. Rule for the calls: active = hit-call score of the fitted dose curve at least 0.9, where 1 is the maximum; inactive = score below 0.9.
Outcome (select one): active, inactive

So what was the verdict on "COCc1nnc(-c2ccc[n+]([O-])c2)n1-c1c(Cl)c(Cl)cc2[nH]c(=O)c(=O)[nH]c12" in this test? inactive

Recorded call for "NC(=O)NN=Cc1ccc([N+](=O)[O-])o1" ? inactive

// param item: "FC(F)=C(F)C(F)(F)C(F)(F)C(F)(F)C(F)(F)C(F)(F)C(F)(F)F" ; yields the recorded call inactive

For "CCCOc1ccc(S(=O)(=O)N2CCN(CC)CC2)cc1-c1nc2c(CC)n(Cc3ccccn3)nc2c(=O)[nH]1" , what call appears in the results of this test? inactive

What was the test verdict on "CCCCOC(=O)c1ccccc1" ? inactive

Please share the test call associated with "OCC(CO)(CO)CO" . inactive

Per the records of this test, what outcome belongs to "CCc1ccc(O)c(C(C)(C)C)c1" ? active

# fetch the recorded call for "OC[C@H]1O[C@@H]2O[C@H]3[C@H](O)[C@@H](O)[C@@H](O[C@H]4[C@H](O)[C@@H](O)[C@@H](O[C@H]5[C@H](O)[C@@H](O)[C@@H](O[C@H]6[C@H](O)[C@@H](O)[C@@H](O[C@H]7[C@H](O)[C@@H](O)[C@@H](O[C@H]1[C@H](O)[C@H]2O)O[C@@H]7CO)O[C@@H]6CO)O[C@@H]5CO)O[C@@H]4CO)O[C@@H]3CO" here inactive

In this assay, the call recorded for "COc1cc(C(C)C)c2c(c1)S(=O)(=O)N(COc1cc(=O)n3cccc(OCCN4CCCCC4)c3n1)C2=O" was what? active

For "OC[C@H]1O[C@@](CO)(O[C@H]2O[C@H](CO)[C@@H](O)[C@H](O)[C@H]2O)[C@@H](O)[C@@H]1O" , which call appears in the assay record? inactive

In this assay, the call recorded for "Cn1c(=O)c2[nH]cnc2n(C)c1=O" was what? inactive

Could you please tell me the result logged for "NCC(F)(F)C(F)(F)C(F)(F)C(F)(F)F" in this assay? inactive

Outcome logged for "COc1cc2c(c(OC)c1OC)-c1ccc(OC)c(=O)cc1[C@@H](NC(C)=O)CC2" in this assay: active

What did this assay record as the result for "CC(=O)c1ccccc1" ? inactive

What is the recorded call for this compound in the test? "OCc1c[nH]c2ccccc12" active

Recorded test call requested for "CCc1cccc(CC)c1N" inactive

I'd appreciate the recorded outcome for "O=C(O)[C@H](O)[C@@H](O)C(=O)O" from this test. inactive

// return assay outcome for "OCCNCCO" inactive

Hi team, can someone confirm the assay call for "OCc1ccccc1" ? inactive

Give the logged outcome of this assay for the following compound: "CCCCCCCCCCCCCCO" active

What call does the record list for CC(C)CC(C)O (stereo not drawn) ? inactive

Hi team, can someone confirm the assay call for "OC(Cn1cncn1)(Cn1cncn1)c1ccc(F)cc1F" ? inactive

Name the outcome recorded for "c1ccc2c(c1)-c1cccc3c1c-2cc1ccccc13" in the assay. inactive

* * *

# Read-out: Matrix Metallopeptidase 9 (MMP9), MMP9 (gene 4318)
# Experiment description: BSK_KF3CT_MMP9: BioMAP Diversity Plus: KF3CT Assay for Matrix Metallopeptidase 9 (MMP9) Biomarker Activity (AID 2283074)
# Run conditions: primary human keratinocytes with fibroblasts; actives raise or lower the signal
Activity calls are given as the source filed them. The calls were made as follows: active = hit-call score of the fitted dose curve at least 0.9, where 1 is the maximum; inactive = score below 0.9.
Answer with one of the outcomes label 1 (active), label 0 (inactive)

Hi, sorry to bother you, what did the test record for "c1ccc(C(O[C@@H]2CCCN(CCc3ccc4c(c3)OCO4)C2)c2ccccc2)cc1" ? label 1

In this assay, the call recorded for "c1ccc2ncccc2c1" was what? label 0

Query: recorded result category for "CNC(C)=O" in this test label 0

Hi, sorry to bother you, what did the test record for "C[C@@H](Oc1ccc(CNC(=O)c2cccnc2Oc2ccc3c(c2)OCO3)c(F)c1)C(=O)O" ? label 0

Please indicate how the test categorized "CCCCCCCCN(C)C" . label 0

Record request — test call for "CCCC(CCC)C(=O)O" label 0

Just curious, what result did "CC1(C)C(=O)N(Cl)C(=O)N1Cl" get here? label 0

Hi, do you know how "COS(C)(=O)=O" came out in this test? label 0

Tell me the recorded outcome of this test for "COCc1nnc(-c2ccc[n+]([O-])c2)n1-c1c(Cl)c(Cl)cc2[nH]c(=O)c(=O)[nH]c12" . label 0

Assay outcome for "CCCOc1ccc(S(=O)(=O)N2CCN(CC)CC2)cc1-c1nc2c(CC)n(Cc3ccccn3)nc2c(=O)[nH]1" : what was it? label 0

Short answer needed: outcome of this test for "NC(=O)N1c2ccccc2C=Cc2ccccc21" ? label 0

Test call for this compound, please: "Nc1ccn([C@@H]2O[C@H](CO)[C@@H](O)[C@@H]2O)c(=O)n1" label 0

Just curious, what result did "c1ccc2c(c1)-c1cccc3c1c-2cc1ccccc13" get here? label 0

In this assay, the call recorded for CCCCC(CC)C(=O)OCCOCCOCCOC(=O)C(CC)CCCC (stereo not drawn) was what? label 0

I'd appreciate the recorded outcome for "CCn1nc(C)c2c1C(=O)NCC(c1ccc(O)cc1)=N2" from this test. label 0

Tell me the assay call for "CCCCCCOC(=O)CC(CC(=O)OCCCCCC)(OC(=O)CCC)C(=O)OCCCCCC" please. label 0

What was the test verdict on "C[C@]12C=CC(=O)C=C1CC[C@H]1[C@@H]3C[C@@H](O)[C@](O)(C(=O)CO)[C@@]3(C)C[C@H](O)[C@@]12F" ? label 0

Assay result, entry "OC[C@H]1O[C@@](CO)(O[C@H]2O[C@H](CO)[C@@H](O)[C@H](O)[C@H]2O)[C@@H](O)[C@@H]1O" — outcome? label 0

Would you mind telling me which call this test gave "CCCc1ccccc1" ? label 0

Recorded test call requested for "CC(C)c1nnc2ccc(-c3ocnc3-c3cc(F)ccc3F)cn12" label 0

Test call, this compound: "Cc1ccc(S(=O)(=O)NC(=O)NN2CCCCCC2)cc1" label 0

I would be grateful if you could indicate the recorded call for "OC(CCl)CCl" . label 0

Tell me the recorded outcome of this test for "CC[C@H](C)C(=O)O[C@H]1C[C@H](O)C=C2C=C[C@H](C)[C@H](CC[C@@H](O)C[C@@H](O)CC(=O)O)[C@H]21" . label 0
